Target: Fes (UniProt P07332)
Sequence (P07332 whole entry, looked up): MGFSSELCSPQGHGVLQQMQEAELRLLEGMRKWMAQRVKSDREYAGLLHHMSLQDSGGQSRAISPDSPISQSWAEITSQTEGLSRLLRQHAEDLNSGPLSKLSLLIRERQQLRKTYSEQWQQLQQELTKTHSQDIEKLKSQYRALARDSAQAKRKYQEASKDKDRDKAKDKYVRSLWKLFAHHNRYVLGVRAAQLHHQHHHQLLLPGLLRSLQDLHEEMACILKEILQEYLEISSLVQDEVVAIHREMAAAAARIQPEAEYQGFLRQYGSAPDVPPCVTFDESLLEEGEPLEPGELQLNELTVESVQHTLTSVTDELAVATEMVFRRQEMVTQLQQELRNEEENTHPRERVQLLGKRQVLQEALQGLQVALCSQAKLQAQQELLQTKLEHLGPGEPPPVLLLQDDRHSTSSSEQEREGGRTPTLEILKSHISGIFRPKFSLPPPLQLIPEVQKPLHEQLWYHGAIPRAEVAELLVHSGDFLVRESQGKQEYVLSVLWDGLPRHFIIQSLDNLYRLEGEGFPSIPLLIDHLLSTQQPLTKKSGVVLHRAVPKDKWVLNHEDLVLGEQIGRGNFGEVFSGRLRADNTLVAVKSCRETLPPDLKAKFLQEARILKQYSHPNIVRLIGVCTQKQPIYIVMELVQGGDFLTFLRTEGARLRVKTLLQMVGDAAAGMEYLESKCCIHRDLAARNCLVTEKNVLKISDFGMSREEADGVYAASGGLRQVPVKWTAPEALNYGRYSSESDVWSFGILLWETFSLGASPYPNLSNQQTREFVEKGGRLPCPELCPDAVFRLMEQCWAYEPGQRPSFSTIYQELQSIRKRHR
Experiment: phosphorylation enrichment, bacterial display (enrichment ratio); higher = better substrate or ligand; peptides without Tyr show the background;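 note: 11-residue human phosphosite peptides and single-mutation variants displayed on the E. coli surface, counted by deep sequencing, each peptide's frequency after selection divided by its frequency in the unselected input library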;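 note: frequency after pTyr selection over input frequency; kinase dosed for 20-30% of maximal phosphorylation in three min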
Reported phosphorylation enrichment values for a set of sequences
measured.endpoint: phosphorylation enrichment

- SAVTGYRVDVI [FN1_Y937]: 0.566
- LRYEVYGGENE [STOX1_Y610]: 1.25
- PTYENYANSTQ [SLC12A3_Y70_H69N]: 0.743
- FARNSYVAGQY [G6PD_Y107]: 0.544
- QLFGPYLRIHA [BSCL2_Y213_A212P_YF]: 1.56
- GLDGSYLPRDS [SH2D1A_Y29_L31P]: 0.624
- VAFVYYKSIGP [ADGRL4_Y302]: 1.6
